details: [M+H]+; instrument: DT; single field, calibrated with Agilent tune mix (Agilent)
Parameter collision cross section (N2): see the listing below.
Quick note: give the figure in Å², leave out the unit.

Solved entries (count: 4):
Molecule | Numeric result
CCCCCCCCCCCCC=CC[C@@H](O)[C@H](CO)NC(=O)CCCCCCCCCCCCCCCCCCCCCCCCC [Cer(44:1)] | 284.8
CCCC/C=C\C/C=C\CCCCCCCC(=O)OC[C@H](COP(=O)(O)OCCN)OC(=O)CCCCCCC/C=C\CCCCCCCCC [PE(36:3)] | 274.9
CCCCCCCCCC/C=C\CCCCCCCCCC(=O)O[C@H](COC(=O)CCCCCCCCCCCC)COP(=O)([O-])OCC[N+](C)(C)C [PC(35:1)] | 289.2
CCCCCCCC/C=C\CCCCCCCCCC(=O)O[C@H](COC(=O)CCCCCCCCCCCCC)COP(=O)(O)O [PA(34:1)] | 271

Could you tell me which collision cross section (N2) is on file for CC/C=C\C/C=C\C/C=C\C/C=C\CCCCC(=O)OC[C@H](COP(=O)(O)OC[C@@H](O)CO)OC(=O)CCCCCCCCC/C=C\CCCCCCCC [PG(38:5)] ?
292.1

Could you tell me which collision cross section (N2) is on file for CCCCCCCCCCCCCCCCCC(=O)O[C@H](CO)COP(=O)([O-])OCC[N+](C)(C)C [LPC(18:0)] ?
237.9
